# assayed_target: rat mGluR1a receptor (Rattus norvegicus)
# Construct: expressed in transfected cells; host or cells: HEK 293 cells (transient transfection), membrane preparation
# protocol_text: binding assay for the characterization of mGluR 1 antagonistic properties (tritiated radioligand displacement)
# assay_context: membranes from HEK 293 cells transfected with rat mGluR1a; tritiated 1-ethyl-2-methyl-6-oxo-4-(1,1,2-tritritio-1,2,4,5-tetrahydro-benzo[d]azepin-3-yl)-1,6-dihydro-pyrimidine-5-carbonitrile at 3 nM; 1 hour at room temperature; read-out: B-IC 50
Threshold 10 nM: IC50 strictly smaller gives label 1, otherwise label 0.

[
  {
    "chem_smiles": "N#Cc1c(OCC(F)(F)F)nc(NCCO)nc1N1CCc2ccccc2CC1",
    "label": "label 1"
  },
  {
    "chem_smiles": "Cc1nc(N2CCc3ccccc3CC2)c(C#N)c(=O)[nH]1",
    "label": "label 0"
  },
  {
    "chem_smiles": "CSc1nc(N)nc(N2CCc3ccccc3CC2)c1C#N",
    "label": "label 0"
  },
  {
    "chem_smiles": "CCn1c(N)nc(N2CCc3ccccc3CC2)c(C#N)c1=O",
    "label": "label 1"
  },
  {
    "chem_smiles": "Cc1nc(N2CCc3ccccc3CC2)c(C#N)c(=O)n1CC(F)(F)F",
    "label": "label 0"
  },
  {
    "chem_smiles": "CNn1c(C)nc(N2CCc3ccccc3CC2)c(C#N)c1=O",
    "label": "label 0"
  },
  {
    "chem_smiles": "N#Cc1c(N2CCc3ccccc3CC2)nc2n(c1=O)CCC2",
    "label": "label 0"
  },
  {
    "chem_smiles": "Cc1nc(N2CCc3ccccc3CC2)c(C#N)c(=O)n1OCC(F)(F)F",
    "label": "label 1"
  }
]

* * *

Recorded IC50 by entry
# assayed_target: rat mGluR1a receptor (Rattus norvegicus)
# Construct: expressed in transfected cells; host or cells: HEK 293 cells (transient transfection), membrane preparation
# protocol_text: binding assay for the characterization of mGluR 1 antagonistic properties (tritiated radioligand displacement)
# assay_context: membranes from HEK 293 cells transfected with rat mGluR1a; tritiated 1-ethyl-2-methyl-6-oxo-4-(1,1,2-tritritio-1,2,4,5-tetrahydro-benzo[d]azepin-3-yl)-1,6-dihydro-pyrimidine-5-carbonitrile at 3 nM; 1 hour at room temperature; read-out: B-IC 50

[
  {
    "compound": "CCNc1nc(N2CCc3ccccc3CC2)c(C#N)c(=O)[nH]1 [Example 25]",
    "IC50 [nM]": 15
  },
  {
    "compound": "CCn1c(C)nc(N2CCc3ccc(F)cc3CC2)c([N+](=O)[O-])c1=O [Example 132]",
    "IC50 [nM]": 80
  },
  {
    "compound": "N#Cc1c(OCC(F)(F)F)nc(NCCCN2CCOCC2)nc1N1CCc2ccccc2CC1 [Example 174]",
    "IC50 [nM]": 88
  },
  {
    "compound": "Cc1nc(N2CCc3ccccc3CC2)c([N+](=O)[O-])c(=O)n1CC(F)(F)F [Example 11]",
    "IC50 [nM]": 18
  }
]

* * *

# assayed_target: rat mGluR1a receptor (Rattus norvegicus, UniProt P23385)
# Construct: expressed in transfected cells; host or cells: HEK 293 cells (transient transfection), membrane preparation
# Sequence (P23385 19-1199): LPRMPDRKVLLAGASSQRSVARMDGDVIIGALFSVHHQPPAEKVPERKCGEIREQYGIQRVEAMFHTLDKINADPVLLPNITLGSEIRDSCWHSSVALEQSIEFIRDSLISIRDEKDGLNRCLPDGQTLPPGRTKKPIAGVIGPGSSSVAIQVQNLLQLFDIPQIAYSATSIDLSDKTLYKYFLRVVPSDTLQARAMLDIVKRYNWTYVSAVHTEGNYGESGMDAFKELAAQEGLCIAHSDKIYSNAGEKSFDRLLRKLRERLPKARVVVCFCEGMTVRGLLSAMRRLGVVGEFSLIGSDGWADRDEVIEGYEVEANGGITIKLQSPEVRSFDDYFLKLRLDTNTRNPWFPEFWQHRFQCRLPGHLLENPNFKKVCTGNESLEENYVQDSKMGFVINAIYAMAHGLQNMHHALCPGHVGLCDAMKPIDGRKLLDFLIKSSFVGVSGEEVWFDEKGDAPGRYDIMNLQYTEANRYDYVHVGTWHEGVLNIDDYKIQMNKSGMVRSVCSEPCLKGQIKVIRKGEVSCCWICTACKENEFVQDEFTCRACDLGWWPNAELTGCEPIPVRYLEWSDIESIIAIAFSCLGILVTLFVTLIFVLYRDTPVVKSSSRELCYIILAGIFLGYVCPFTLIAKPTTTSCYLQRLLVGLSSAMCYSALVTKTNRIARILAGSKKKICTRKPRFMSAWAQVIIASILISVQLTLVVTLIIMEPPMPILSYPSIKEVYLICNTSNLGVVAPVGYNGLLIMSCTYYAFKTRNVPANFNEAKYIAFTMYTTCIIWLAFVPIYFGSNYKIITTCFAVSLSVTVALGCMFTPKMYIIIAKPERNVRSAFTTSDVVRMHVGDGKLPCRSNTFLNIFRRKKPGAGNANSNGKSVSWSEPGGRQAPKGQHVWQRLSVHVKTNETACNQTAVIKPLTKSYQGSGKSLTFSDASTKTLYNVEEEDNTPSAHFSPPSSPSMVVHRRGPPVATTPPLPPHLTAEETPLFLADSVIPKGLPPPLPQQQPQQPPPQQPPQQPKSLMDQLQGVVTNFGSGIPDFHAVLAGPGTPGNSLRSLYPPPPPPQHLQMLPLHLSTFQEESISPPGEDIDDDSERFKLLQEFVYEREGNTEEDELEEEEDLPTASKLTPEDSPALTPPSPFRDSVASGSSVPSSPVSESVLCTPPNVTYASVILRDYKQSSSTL
# protocol_text: functional assay for the characterization of mGluR 1 antagonistic properties ([Ca2+]i measurement, FLIPR)
# Assay type: cell-based
# assay_context: mGluR1a transfected HEK-EBNA cells; 10 µM glutamate as agonist; antagonists applied 5 minutes prior to agonist; read-out: F-IC 50

[
  {
    "chem_smiles": "CSc1nc(N)nc(N2CCc3ccccc3CC2)c1C#N",
    "assayed_target": "rat mGluR1a receptor (Rattus norvegicus, UniProt P23385)",
    "IC50 (nM)": 23
  },
  {
    "chem_smiles": "CCn1c(N)nc(N2CCc3ccccc3CC2)c(C#N)c1=O",
    "assayed_target": "rat mGluR1a receptor (Rattus norvegicus, UniProt P23385)",
    "IC50 (nM)": 9
  },
  {
    "chem_smiles": "Cc1nc(N2CCc3ccccc3CC2)c([N+](=O)[O-])c(=O)n1CC(F)(F)F",
    "assayed_target": "rat mGluR1a receptor (Rattus norvegicus, UniProt P23385)",
    "IC50 (nM)": 8
  },
  {
    "chem_smiles": "N#Cc1c(OCC(F)(F)F)nc(NCCO)nc1N1CCc2ccccc2CC1",
    "assayed_target": "rat mGluR1a receptor (Rattus norvegicus, UniProt P23385)",
    "IC50 (nM)": 200
  },
  {
    "chem_smiles": "CCNc1nc(N2CCc3ccccc3CC2)c(C#N)c(=O)[nH]1",
    "assayed_target": "rat mGluR1a receptor (Rattus norvegicus, UniProt P23385)",
    "IC50 (nM)": 5
  },
  {
    "chem_smiles": "N#Cc1c(OCC(F)(F)F)nc(NCCCN2CCOCC2)nc1N1CCc2ccccc2CC1",
    "assayed_target": "rat mGluR1a receptor (Rattus norvegicus, UniProt P23385)",
    "IC50 (nM)": 970
  },
  {
    "chem_smiles": "CCn1c(C)nc(N2CCc3ccc(F)cc3CC2)c([N+](=O)[O-])c1=O",
    "assayed_target": "rat mGluR1a receptor (Rattus norvegicus, UniProt P23385)",
    "IC50 (nM)": 14
  },
  {
    "chem_smiles": "Cc1nc(N2CCc3ccccc3CC2)c(C#N)c(=O)n1OCC(F)(F)F",
    "assayed_target": "rat mGluR1a receptor (Rattus norvegicus, UniProt P23385)",
    "IC50 (nM)": 38
  },
  {
    "chem_smiles": "Cc1nc(N2CCc3ccccc3CC2)c(C#N)c(=O)n1CC(F)(F)F",
    "assayed_target": "rat mGluR1a receptor (Rattus norvegicus, UniProt P23385)",
    "IC50 (nM)": 26
  },
  {
    "chem_smiles": "CNn1c(C)nc(N2CCc3ccccc3CC2)c(C#N)c1=O",
    "assayed_target": "rat mGluR1a receptor (Rattus norvegicus, UniProt P23385)",
    "IC50 (nM)": 120
  },
  {
    "chem_smiles": "Cc1nc(N2CCc3ccccc3CC2)c(C#N)c(=O)[nH]1",
    "assayed_target": "rat mGluR1a receptor (Rattus norvegicus, UniProt P23385)",
    "IC50 (nM)": 88
  },
  {
    "chem_smiles": "CCn1c(NC=O)nc(N2CCc3ccccc3CC2)c(C#N)c1=O",
    "assayed_target": "rat mGluR1a receptor (Rattus norvegicus, UniProt P23385)",
    "IC50 (nM)": 210
  },
  {
    "chem_smiles": "N#Cc1c(N2CCc3ccccc3CC2)nc2n(c1=O)CCC2",
    "assayed_target": "rat mGluR1a receptor (Rattus norvegicus, UniProt P23385)",
    "IC50 (nM)": 100
  }
]

All figures here come from patent EP1074549B1.
